// values below are reported DC50
Biological target: SMARCA2 (Homo sapiens, UniProt P51531)
Sequence (P51531 whole entry): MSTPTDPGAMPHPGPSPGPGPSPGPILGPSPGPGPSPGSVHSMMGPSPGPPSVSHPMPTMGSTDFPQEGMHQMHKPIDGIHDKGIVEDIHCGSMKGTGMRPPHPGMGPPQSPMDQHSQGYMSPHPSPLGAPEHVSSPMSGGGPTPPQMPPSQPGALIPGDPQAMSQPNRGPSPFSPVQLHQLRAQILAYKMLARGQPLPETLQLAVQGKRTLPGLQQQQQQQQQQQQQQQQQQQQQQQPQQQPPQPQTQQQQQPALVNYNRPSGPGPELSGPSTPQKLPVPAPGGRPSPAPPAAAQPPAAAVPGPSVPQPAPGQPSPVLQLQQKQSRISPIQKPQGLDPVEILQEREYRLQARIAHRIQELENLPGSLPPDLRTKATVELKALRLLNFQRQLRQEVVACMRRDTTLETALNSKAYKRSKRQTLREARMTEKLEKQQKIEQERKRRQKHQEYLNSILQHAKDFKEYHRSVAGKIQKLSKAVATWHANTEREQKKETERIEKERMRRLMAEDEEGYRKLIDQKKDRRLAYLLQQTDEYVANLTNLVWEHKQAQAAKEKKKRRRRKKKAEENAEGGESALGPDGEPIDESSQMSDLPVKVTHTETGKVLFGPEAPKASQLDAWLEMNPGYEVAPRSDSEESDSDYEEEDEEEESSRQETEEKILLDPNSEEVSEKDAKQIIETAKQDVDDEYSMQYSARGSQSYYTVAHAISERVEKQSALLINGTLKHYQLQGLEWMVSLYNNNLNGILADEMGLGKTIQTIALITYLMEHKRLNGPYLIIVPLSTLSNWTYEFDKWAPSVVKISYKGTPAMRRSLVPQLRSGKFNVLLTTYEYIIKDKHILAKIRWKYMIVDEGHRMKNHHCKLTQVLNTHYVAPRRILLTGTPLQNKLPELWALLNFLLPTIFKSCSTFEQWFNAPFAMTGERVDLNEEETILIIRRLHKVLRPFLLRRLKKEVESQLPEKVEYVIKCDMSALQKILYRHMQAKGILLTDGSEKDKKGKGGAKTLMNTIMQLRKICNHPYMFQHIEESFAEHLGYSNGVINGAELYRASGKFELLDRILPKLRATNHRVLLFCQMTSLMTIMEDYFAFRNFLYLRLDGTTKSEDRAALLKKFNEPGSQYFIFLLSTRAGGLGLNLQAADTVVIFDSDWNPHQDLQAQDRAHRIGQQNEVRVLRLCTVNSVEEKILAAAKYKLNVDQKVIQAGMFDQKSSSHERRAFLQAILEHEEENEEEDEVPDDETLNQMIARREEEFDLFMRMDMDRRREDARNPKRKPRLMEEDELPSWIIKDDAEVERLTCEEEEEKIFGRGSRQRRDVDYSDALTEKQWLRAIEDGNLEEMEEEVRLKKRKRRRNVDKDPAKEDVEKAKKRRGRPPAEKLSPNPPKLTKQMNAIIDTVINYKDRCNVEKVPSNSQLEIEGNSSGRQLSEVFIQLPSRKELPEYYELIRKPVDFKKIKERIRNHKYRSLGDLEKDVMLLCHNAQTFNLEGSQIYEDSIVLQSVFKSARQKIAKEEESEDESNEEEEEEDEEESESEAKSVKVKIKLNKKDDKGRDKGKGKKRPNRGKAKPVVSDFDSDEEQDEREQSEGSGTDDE
Test: SMARCA2 Western blot degradation in MV4-11 cells
Type: cell-based
Parameters: SMARCA2/SMARCA4 protein degradation selectivity in MV4-11 cells; endogenous in cells; host or cells: MV4-11
Conditions: MV4-11 cells, 24 h; read-out: SMARCA2 MSD MV411 degradation 24 h: Mean external-Abs DC50

[
  {
    "COMPOUND": "C#Cc1ccc(CNC(=O)[C@@H]2C[C@@H](O)CN2C(=O)[C@@H](NC(=O)CN2CC3(CC(N4CCC(N5CCC(N6CCN7c8cc(-c9ccccc9O)nnc8NC[C@H]7C6)CC5)CC4)C3)C2)C(C)(C)C)cc1",
    "ENDPOINT RESULT": "10 to 100 nM"
  },
  {
    "COMPOUND": "Cc1ncsc1-c1ccc(CNC(=O)[C@@H]2C[C@@H](O)CN2C(=O)[C@@H](NC(=O)C2(F)CC2)C(C)(C)C)c(OC2CCN(Cc3cnc(N4CCc5[nH]c6nnc(-c7ccccc7O)cc6c5[C@@H]4C)nc3)CC2)c1 (single isomer, unassigned)",
    "ENDPOINT RESULT": "> 100 nM"
  },
  {
    "COMPOUND": "C#Cc1ccc([C@H](C)NC(=O)[C@@H]2C[C@@H](O)CN2C(=O)C(c2cc(N3CCC(N4CCC(N5CCC(CN6CCN7c8cc(-c9ccccc9O)nnc8NC[C@H]7C6)CC5)CC4)CC3)no2)C(C)C)cc1 (stereo partly shown)",
    "ENDPOINT RESULT": "1 to 10 nM"
  }
]

Find the measured DC50 of Cc1ncsc1-c1ccc(CNC(=O)[C@@H]2C[C@@H](O)CN2C(=O)[C@@H](NC(=O)C2(F)CC2)C(C)(C)C)c(OC2CN(CCN3CCC(c4cnc(N5CCc6[nH]c7nnc(-c8ccccc8O)cc7c6C5C)nc4)CC3)C2)c1 (stereo partly shown) and report it.
10 to 100 nM

---

Target: SMARCA4 (Homo sapiens)
Construct: SMARCA2/SMARCA4 protein degradation selectivity in MV4-11 cells; endogenous in cells; host or cells: MV4-11
Sequence (P51532 whole entry): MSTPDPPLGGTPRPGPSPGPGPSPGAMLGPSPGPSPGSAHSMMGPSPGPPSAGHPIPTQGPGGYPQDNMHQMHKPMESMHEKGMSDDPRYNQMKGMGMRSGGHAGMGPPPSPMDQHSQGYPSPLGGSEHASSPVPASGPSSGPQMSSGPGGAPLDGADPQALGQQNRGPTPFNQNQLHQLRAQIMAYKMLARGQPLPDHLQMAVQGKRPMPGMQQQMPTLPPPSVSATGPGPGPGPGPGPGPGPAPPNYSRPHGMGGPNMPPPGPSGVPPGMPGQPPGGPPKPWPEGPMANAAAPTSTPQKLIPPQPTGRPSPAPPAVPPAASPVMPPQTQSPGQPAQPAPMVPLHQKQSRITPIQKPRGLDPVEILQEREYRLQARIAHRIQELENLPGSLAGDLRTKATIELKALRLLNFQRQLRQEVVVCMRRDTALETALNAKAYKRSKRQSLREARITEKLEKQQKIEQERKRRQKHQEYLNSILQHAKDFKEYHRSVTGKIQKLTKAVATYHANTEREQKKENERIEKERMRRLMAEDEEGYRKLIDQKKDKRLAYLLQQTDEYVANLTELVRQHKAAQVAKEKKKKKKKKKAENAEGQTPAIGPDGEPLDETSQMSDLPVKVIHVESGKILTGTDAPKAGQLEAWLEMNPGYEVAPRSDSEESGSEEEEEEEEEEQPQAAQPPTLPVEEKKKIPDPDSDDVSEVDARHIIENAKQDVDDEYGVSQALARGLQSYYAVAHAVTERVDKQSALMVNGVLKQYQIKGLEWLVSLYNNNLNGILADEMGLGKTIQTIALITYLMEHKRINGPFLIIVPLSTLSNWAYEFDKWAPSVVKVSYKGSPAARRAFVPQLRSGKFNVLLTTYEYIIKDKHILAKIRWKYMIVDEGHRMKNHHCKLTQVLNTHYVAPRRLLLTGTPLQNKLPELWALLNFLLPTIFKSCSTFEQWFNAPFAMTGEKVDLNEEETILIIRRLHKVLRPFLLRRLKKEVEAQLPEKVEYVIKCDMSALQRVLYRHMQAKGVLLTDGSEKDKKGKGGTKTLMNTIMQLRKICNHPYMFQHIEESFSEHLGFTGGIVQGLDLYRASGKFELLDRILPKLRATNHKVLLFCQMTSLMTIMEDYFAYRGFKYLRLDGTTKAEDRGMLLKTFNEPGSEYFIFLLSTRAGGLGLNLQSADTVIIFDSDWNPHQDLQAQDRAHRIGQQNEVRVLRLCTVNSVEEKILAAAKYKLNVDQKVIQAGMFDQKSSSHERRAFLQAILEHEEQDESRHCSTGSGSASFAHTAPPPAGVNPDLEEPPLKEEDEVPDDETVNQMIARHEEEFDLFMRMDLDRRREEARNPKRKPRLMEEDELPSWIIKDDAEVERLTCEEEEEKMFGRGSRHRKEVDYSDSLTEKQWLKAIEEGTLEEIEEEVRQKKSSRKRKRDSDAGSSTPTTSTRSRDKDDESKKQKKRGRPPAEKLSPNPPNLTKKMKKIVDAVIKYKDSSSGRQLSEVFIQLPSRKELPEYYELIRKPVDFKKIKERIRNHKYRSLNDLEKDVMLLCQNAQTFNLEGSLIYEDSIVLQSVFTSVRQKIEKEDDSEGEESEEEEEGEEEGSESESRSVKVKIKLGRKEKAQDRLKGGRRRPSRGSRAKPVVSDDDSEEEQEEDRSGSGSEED
Assay: SMARCA4 Western blot degradation in MV4-11 cells
Type: cell-based
Settings: MV4-11 cells, 24 h; read-out: SMARCA4 MSD MV411 degradation 24 h: Mean external-Abs DC50
The following compounds are listed with their measured DC50 values.

[
  {
    "COMPOUND": "C#Cc1ccc(CNC(=O)[C@@H]2C[C@@H](O)CN2C(=O)[C@@H](NC(=O)N2CC3(CC(N4CCC(c5cnc(N6CCc7[nH]c8nnc(-c9ccccc9O)cc8c7[C@H]6C)nc5)CC4)C3)C2)C(C)(C)C)c(O)c1",
    "TARGET OR SYSTEM": "SMARCA4 (Homo sapiens)",
    "DC50": "10 to 100 nM"
  },
  {
    "COMPOUND": "Cc1ncsc1-c1ccc(CNC(=O)[C@@H]2C[C@@H](O)CN2C(=O)[C@@H](NC(=O)[C@H]2CC3(C2)C[C@H](N2CCN(c4cnc(N5CCN6c7cc(-c8ccccc8O)nnc7NC[C@H]6C5)nc4)CC2)C3)C(C)(C)C)cc1 (stereo partly shown) [I-18]",
    "TARGET OR SYSTEM": "SMARCA4 (Homo sapiens)",
    "DC50": "10 to 100 nM"
  },
  {
    "COMPOUND": "C#Cc1ccc(CNC(=O)[C@@H]2C[C@@H](O)CN2C(=O)[C@@H](NC(=O)N2CCC(C(=O)N3CCC(N4CCC(N5CCc6[nH]c7nnc(-c8ccccc8O)cc7c6[C@H]5C)CC4)CC3)CC2)C(C)(C)C)cc1",
    "TARGET OR SYSTEM": "SMARCA4 (Homo sapiens)",
    "DC50": "> 100 nM"
  }
]

Alright, here's another compound for you.
// fetch DC50 given entry CC#Cc1ccc(CNC(=O)[C@@H]2C[C@@H](O)CN2C(=O)[C@@H](NC(=O)[C@H]2CCC3(CC2)C[C@H](N2CCC(c4cnc(N5CCN6c7cc(-c8ccccc8O)nnc7NC[C@H]6C5)nc4)CC2)C3)C(C)(C)C)cc1 (single isomer, unassigned) [I-103]
> 100 nM
